Each recorded value in this set is attributed to patent US20200079833A1.

target: GLP-1 receptor (GLP-1R), primary cAMP assay cell line (human, UniProt P43220 24-463); test: cell-based or functional assay
Starred links: 1 amine or outer side, 2 acyl side, 3 side chain; linkers in the order of their positions; H or OH if unused. Non-standard residues stand in square brackets, D forms with d. Groups on a side chain read outwards from the residue. Primed or numbered codes have the meaning given here. No end group written: not given here. *: point of attachment. γGlu = O=C(O)[C@H](CCC(=O)[*:2])N[*:1]; αMeF = C[C@](N)(Cc1ccccc1)C(=O)O; αMeK = C[C@](N)(CCCCN)C(=O)O; Lauroyl = CCCCCCCCCCCC(=O)*; αMeS = C[C@](N)(CO)C(=O)O; PEG2′ = not defined here; Aib = CC(C)(N)C(=O)O
value_type: cAMP Primary assay EC50, Mean pM GLP-1R (pM)
Respond with the bare value in pM.

As a guide, the following entries are already answered.
binder	readout_number
H[Aib]EGS[αMeF]TSDK([PEG2′-PEG2′-γGlu-Lauroyl])SSYLEGK([PEG2′-PEG2′-γGlu-Lauroyl])AA[αMeK]EFIAK([PEG2′-PEG2′-γGlu-Lauroyl])VVEGG-NH2 [SEQ ID NO: 456]	170
H[Aib]EGS[αMeF]TSDK([PEG2′-PEG2′-γGlu-Lauroyl])SSYLEGK([PEG2′-PEG2′-γGlu-Lauroyl])AA[αMeK]EFIAFK([PEG2′-PEG2′-γGlu-Lauroyl])VEGG-NH2 [SEQ ID NO: 472]	287
H[Aib]EGS[αMeF]TSDV[αMeS]SYK([PEG2′-PEG2′-γGlu-Lauroyl])EGEK([PEG2′-PEG2′-γGlu-Lauroyl])A[αMeK]EFIAFK([PEG2′-PEG2′-γGlu-Lauroyl])VEGG-NH2 [SEQ ID NO: 485]	196

// below: cAMP Primary assay EC50, Mean pM GLP-1R requested for another binder
Tell me measured cAMP Primary assay EC50, Mean pM GLP-1R for H[Aib]EGS[αMeF]TSDV[αMeS]SK([PEG2′-PEG2′-γGlu-Lauroyl])LEGK([PEG2′-PEG2′-γGlu-Lauroyl])AA[αMeK]EFIK([PEG2′-PEG2′-γGlu-Lauroyl])FVVEGG-NH2 [SEQ ID NO: 448] please. 92.4
